- Tested target: KRAS-G12C/SOS1 (Homo sapiens)
- Sequence (Q07889 564-1049): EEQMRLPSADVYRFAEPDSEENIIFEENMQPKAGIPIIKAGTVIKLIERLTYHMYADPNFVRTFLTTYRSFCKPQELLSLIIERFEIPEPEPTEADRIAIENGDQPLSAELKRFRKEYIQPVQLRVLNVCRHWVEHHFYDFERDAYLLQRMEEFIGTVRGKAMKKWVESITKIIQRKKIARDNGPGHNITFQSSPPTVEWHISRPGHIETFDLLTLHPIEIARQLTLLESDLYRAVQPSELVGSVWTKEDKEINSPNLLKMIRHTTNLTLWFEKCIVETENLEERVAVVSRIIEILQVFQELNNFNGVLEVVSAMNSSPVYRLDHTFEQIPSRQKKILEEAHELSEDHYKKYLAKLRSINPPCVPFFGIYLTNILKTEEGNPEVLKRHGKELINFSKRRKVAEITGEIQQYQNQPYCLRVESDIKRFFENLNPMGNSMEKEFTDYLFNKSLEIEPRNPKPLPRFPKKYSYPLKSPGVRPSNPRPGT
- Protocol description: biochemical
For each record, write down the corresponding pIC50.
Numbers only, as −log10 of the molar value.

In [3]: df
Out[3]:
                                smiles_repr  readout_name  measured_result
0  Cc1nc(N[C@H](C)c2cccc(C(F)F)c2F)c2cc(P3(=O)CCOCC3)c(F)cc2n1         pIC50             6.94
1  CC(=O)N1CCP(=O)(c2ccc3nc(CF)nc(N[C@H](C)c4cccc(C(F)F)c4F)c3c2)CC1         pIC50             6.89
2  Cc1nc(N[C@H](C)c2cccc(C(F)F)c2F)c2cc(P3(=O)CCN(S(C)(=O)=O)CC3)ccc2n1         pIC50             7.21
3  COc1cc2ncnc(N[C@H](C)c3cccc(C(F)F)c3F)c2cc1P1(=O)CCN(S(C)(=O)=O)CC1         pIC50             7.20
4  Cc1nc(N[C@H](C)c2cccc(C(F)(F)F)c2C)c2cc(P3(=O)CCOCC3)c(=O)n(C)c2n1         pIC50             6.75

Please supply pIC50 for each of the following items, keeping them in order.
1. COc1cc2nc(CF)nc(N[C@H](C)c3cccc(C(F)F)c3F)c2cc1P1(=O)CCN(C(C)=O)CC1
2. Cc1nc(N[C@H](C)c2cccc(C(F)(F)F)c2F)c2cc(P3(=O)CCCCC3)ncc2n1

[7.17, 7.09]

I am curious: what pIC50 value has been reported for COc1cc2nc(C)nc(N[C@H](C)c3cccc(C(F)F)c3F)c2cc1P1(=O)CCN(S(C)(=O)=O)CC1 ?
7.42

====

- Tested target: SOS1cat / KRAS G12C (Homo sapiens)
- Protocol description: Guanine nucleotide exchange test (HTRF)
- Type: biochemical
- Experimental parameters: SOS1cat-mediated loading of EDA-GTP-DY-647P1 on His-KRAS G12C, 20° C.; read-out: Nucleotide conversion of HTRF IC50
Note to self: IC50 under 600 nM means 1, ties and anything higher get -1.

# strict comparison: is reported IC50 < 600 nM? input = Cc1nc(N[C@H](C)c2cccc(C(F)F)c2F)c2cc(P3(=O)CCN(S(C)(=O)=O)CC3)ncc2n1 [Example 20]
1

====

For each record, write down the corresponding pIC50.
- Tested target: KRAS-G12C/SOS1 (Homo sapiens, UniProt Q07889)
- Sequence (Q07889 564-1049): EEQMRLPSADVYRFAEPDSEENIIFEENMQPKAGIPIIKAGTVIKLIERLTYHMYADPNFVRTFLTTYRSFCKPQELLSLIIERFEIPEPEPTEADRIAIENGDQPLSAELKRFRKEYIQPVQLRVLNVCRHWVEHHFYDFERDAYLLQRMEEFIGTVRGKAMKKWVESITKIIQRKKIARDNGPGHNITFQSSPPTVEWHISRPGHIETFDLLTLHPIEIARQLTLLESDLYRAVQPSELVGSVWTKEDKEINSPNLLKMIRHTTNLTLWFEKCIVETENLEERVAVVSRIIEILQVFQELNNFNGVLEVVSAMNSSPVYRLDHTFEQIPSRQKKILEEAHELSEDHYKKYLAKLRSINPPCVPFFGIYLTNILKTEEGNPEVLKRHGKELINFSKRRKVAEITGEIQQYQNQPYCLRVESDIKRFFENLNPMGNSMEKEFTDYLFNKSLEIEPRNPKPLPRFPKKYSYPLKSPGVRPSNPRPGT
- Protocol description: biochemical
Answers are plain numbers, as −log10 of the molar value.

Below, 4 molecules whose answers are already recorded.
>>> print(df.to_string())
                                   molecule  readout_name  measured_result
0  Cc1nc(N[C@H](C)c2cccc(C(F)(F)F)c2C)c2cc(P3(=O)CCN(S(C)(=O)=O)CC3)ccc2n1         pIC50             7.35
1  Cc1nc(N[C@H](C)c2cccc(C(F)(F)F)c2F)c2cc(P3(=O)CCOCC3)ccc2n1         pIC50             7.01
2  Cc1nc(N[C@H](CF)c2cccc(C(F)(F)F)c2C)c2cc(P3(=O)CCN(S(C)(=O)=O)CC3)ccc2n1         pIC50             6.99
3  COc1cc2nc(C)nc(N[C@H](C)c3cccc(C(C)(F)F)c3F)c2cc1P1(=O)CCOCC1         pIC50             7.31

Please supply pIC50 for each of the following items, keeping them in order.
1. Cc1nc(N[C@H](C)c2cccc(C(F)(F)F)c2F)c2cc(P3(=O)CCOCC3)nc(C#N)c2n1
2. Cc1nc(N[C@H](C)c2cccc(C(F)F)c2F)c2cc(P3(=O)CCOCC3)ncc2n1
3. COc1cc2nc(C)nc(N[C@H](C)c3cccc(C(F)(F)F)c3C)c2cc1P1(=O)CCOCC1
4. Cc1nc(N[C@H](C)c2cccc(C(F)(F)F)c2F)c2cc(P3(=O)CCCC3)ncc2n1
5. Cc1nc(N[C@H](C)c2cccc(C(F)F)c2F)c2cc(P3(=O)CCN(C(=O)N(C)C)CC3)ncc2n1

[6.74, 6.81, 7.15, 6.67, 7.06]

====

- Tested target: SOS1cat / KRAS G12C (Homo sapiens)
- Protocol description: Guanine nucleotide exchange test (HTRF)
- Experimental parameters: SOS1cat-mediated loading of EDA-GTP-DY-647P1 on His-KRAS G12C, 20° C.; read-out: Nucleotide conversion of HTRF IC50
Readout name: IC50

                                smiles_repr  measured_result
0  Cc1nc(N[C@H](C)c2cccc(C(F)F)c2F)c2cc(P3(=O)CCN(S(C)(=O)=O)CC3)ccc2n1           542 nM
1  COc1cc2nc(C)nc(N[C@H](C)c3cc(N)cc(C(F)F)c3)c2cc1P1(=O)CCCCC1           482 nM
2  Cc1nc(N[C@H](C)c2cccc(C(C)(F)F)c2F)c2cc(P3(=O)CCN(C(=O)C4CCC4)CC3)ncc2n1           455 nM

Please supply IC50 for each of the following items, keeping them in order.
1. COC(=O)N1CCP(=O)(c2cc3c(N[C@H](C)c4cccc(C(F)F)c4F)nc(C)nc3cn2)CC1
2. Cc1nc(N[C@H](C)c2cc(N)cc(C(F)(F)F)c2)c2cc(P(C)(C)=O)c(OCF)cc2n1

["504 nM", "498 nM"]

====

For each record, write down the corresponding pIC50.
- Tested target: SOS1cat / KRAS G12C (Homo sapiens, UniProt Q07889)
- Protocol description: Guanine nucleotide exchange test (HTRF)
- Experimental parameters: SOS1cat-mediated loading of EDA-GTP-DY-647P1 on His-KRAS G12C, 20° C.; read-out: Nucleotide conversion of HTRF IC50
Answers are plain numbers, as −log10 of the molar value.

Below, 6 molecules whose answers are already recorded.
>>> df
                                smiles_repr  measured_result
0  Cc1nc(N[C@H](C)c2cc(N)cc(C(F)(F)F)c2C)c2cc(P3(=O)CCN(C(=O)C(C)(C)F)CC3)ncc2n1             6.36
1  Cc1nc(N[C@H](C)c2cc(N)cc(C(F)(F)F)c2)c2cc(P(C)(C)=O)c(O)cc2n1             6.14
2  Cc1nc(N[C@H](C)c2cccc(C(F)(F)F)c2)c2cc(P3(=O)CCN(C)CC3)ncc2n1             5.83
3  COCCN1CCP(=O)(c2cc3c(N[C@H](C)c4cccc(C(F)(F)F)c4)nc(C)nc3cn2)CC1             6.05
4  Cc1nc(N[C@H](C)c2cccc(C(C)(F)F)c2F)c2cc(P3(=O)CCN(S(C)(=O)=O)CC3)ncc2n1             6.55
5  Cc1nc(N[C@H](C)c2cc(N)cc(C(F)(F)F)c2C)c2cc(P3(=O)CCN(C(=O)C4(F)CC4)CC3)ncc2n1             6.35

Please supply pIC50 for each of the following items, keeping them in order.
1. Cc1nc(N[C@H](C)c2cccc(C(F)F)c2F)c2cc(P3(=O)CCN(S(=O)(=O)C4CC4)CC3)ncc2n1
2. Cc1nc(N[C@H](C)c2cccc(C(F)(F)F)c2F)c2cc(P3(=O)CCCC3)ncc2n1
3. Cc1nc(N[C@H](C)c2cccc(C(C)(F)F)c2F)c2cc(P3(=O)CCN(CC4CC4)CC3)ncc2n1
4. CNCc1ccccc1-c1csc([C@@H](C)Nc2nc(C)nc3cnc(P4(=O)CCN(C(=O)C5CC5)CC4)cc23)c1
5. Cc1nc(N[C@H](C)c2cc(N)cc(C(F)(F)F)c2C)c2cc(P3(=O)CCN(C(=O)C(C)C)CC3)ncc2n1
6. Cc1nc(N[C@H](C)c2cc(N)cc(C(F)(F)F)c2)c2cc(P(C)(C)=O)c(OC(F)F)cc2n1
7. Cc1nc(N[C@H](C)c2cccc(C(F)(F)F)c2F)c2cc(P3(=O)CCCCC3)ncc2n1
8. [2H]C([2H])([2H])Oc1cc2nc(C)nc(N[C@H](C)c3cc(N)cc(C(F)(F)F)c3)c2cc1P(C)(C)=O

1. 6.32
2. 6.14
3. 6.34
4. 6.31
5. 6.36
6. 6.16
7. 6.24
8. 6.24
